All figures here come from PubChem BioAssay (Tox21).

Molecular target: Glucocorticoid receptor (Homo sapiens) (UniProt P04150)
Sequence (P04150 whole entry, looked up): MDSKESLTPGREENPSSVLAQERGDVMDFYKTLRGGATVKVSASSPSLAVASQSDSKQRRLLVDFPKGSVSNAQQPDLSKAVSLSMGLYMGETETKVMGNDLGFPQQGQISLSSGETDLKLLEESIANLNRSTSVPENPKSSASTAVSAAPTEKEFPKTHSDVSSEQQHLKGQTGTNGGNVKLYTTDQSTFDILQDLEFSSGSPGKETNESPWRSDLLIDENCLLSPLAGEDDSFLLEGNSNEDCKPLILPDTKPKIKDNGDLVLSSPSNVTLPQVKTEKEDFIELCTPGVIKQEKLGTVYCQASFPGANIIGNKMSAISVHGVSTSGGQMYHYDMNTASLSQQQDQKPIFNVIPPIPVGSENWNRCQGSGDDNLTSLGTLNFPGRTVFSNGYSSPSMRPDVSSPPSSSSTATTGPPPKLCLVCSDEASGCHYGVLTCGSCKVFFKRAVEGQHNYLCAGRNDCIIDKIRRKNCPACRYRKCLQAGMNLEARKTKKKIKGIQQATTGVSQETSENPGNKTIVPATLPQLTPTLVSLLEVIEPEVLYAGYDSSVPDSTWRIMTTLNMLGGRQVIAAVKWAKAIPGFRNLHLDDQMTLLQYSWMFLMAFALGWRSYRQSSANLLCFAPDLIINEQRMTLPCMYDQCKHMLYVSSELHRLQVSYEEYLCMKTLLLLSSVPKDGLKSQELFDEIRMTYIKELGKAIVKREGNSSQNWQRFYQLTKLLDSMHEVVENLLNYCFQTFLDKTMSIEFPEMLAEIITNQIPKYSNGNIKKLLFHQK
Assay: qHTS assay to identify small molecule agonists of the glucocorticoid receptor (GR) signaling pathway (AID 720691)
Conditions: GR-bla HeLa, beta-lactamase reporter ratio, 18 h; series mostly up to 62.4 µM
Calls of active or inactive are those of the source. Calls come from the whole dose curve; as a rule, active = well fitted activation curve with a large enough effect in the signal ratio in the repeat runs (not every such curve was filed as active); inconclusive = weak or mixed curves, or effect the other way; inactive = no such curve, though single readings can be large or run the other way; the % refers to the signal ratio.
Outcome field: choose from active, inactive

query: Recorded call for CC(=O)OCC[N+](C)(C)C ?
result: inactive

query: Tell me the assay call for COc1cc(C(=O)NCCCCCC(=O)O)cc(OC)c1OC please.
result: inactive

query: What was the test verdict on O=Cc1c2ccccc2c(Cl)c2ccccc12 ?
result: inactive

query: Hi, do you know how CC/C=C1/OC(=O)c2ccccc21 came out in this test?
result: inactive

query: // outcome(item) with item = O=C1c2ccccc2C(=O)c2c(O)c(O)cc(O)c21
result: inactive

query: // param item: O=C1NC(=O)c2cc([N+](=O)[O-])ccc21 ; yields the recorded call
result: inactive

query: Give the logged outcome of this assay for the following compound: O=C=Nc1cccc(C(F)(F)F)c1
result: inactive

query: Query: recorded result category for C=CC(C)(CCC=C(C)C)OC(=O)CC(C)C (stereo not drawn) in this test
result: inactive

query: Can you look up the reported call for CC1(C)O[C@@H]2C[C@H]3[C@@H]4C[C@H](F)C5=CC(=O)C=C[C@]5(C)[C@H]4[C@@H](O)C[C@]3(C)[C@]2(C(=O)CO)O1 for me?
result: active

query: In this assay, the call recorded for CO/N=C(/C(=O)N[C@@H]1C(=O)N2C(C(=O)O)=C(COC(N)=O)CS[C@H]12)c1ccco1 was what?
result: inactive

query: GET /call?item= CC1=C(Br)C(=O)C(Br)=C/C1=C(/c1ccccc1S(=O)(=O)O)c1cc(Br)c(O)c(Br)c1C returns the recorded outcome of this test.
result: inactive

query: Lab log entry: OC[C@H]1O[C@@H](n2cnc3c(=S)nc[nH]c32)[C@H](O)[C@@H]1O — outcome as called in the assay?
result: inactive

query: Per the records of this test, what outcome belongs to C/C=C/C=C/C=O ?
result: inactive

query: I'd appreciate the recorded outcome for CCn1cc(C(=O)O)c(=O)c2cc(F)c(N3CCNCC3)cc21 from this test.
result: inactive

query: I would be grateful if you could indicate the recorded call for CCCCCCNC(=O)n1cc(F)c(=O)[nH]c1=O .
result: inactive

query: For O=C(O)c1cccc(-c2noc(-c3ccccc3F)n2)c1 , which call appears in the assay record?
result: inactive

query: Given Cc1ccc(CO)cc1 , state the outcome it received in this test.
result: inactive

query: Per the records of this test, what outcome belongs to CC(=O)[C@H]1[C@H](C#N)C[C@H]2[C@@H]3CC=C4C[C@@H](O)CC[C@]4(C)[C@H]3CC[C@@]21C ?
result: inactive

###

Experiment: qHTS assay for identifying genotoxic compounds that show differential cytotoxicity against isogenic chicken DT40 cell lines with known DNA damage response pathways - Rad54/Ku70 mutant cell line (AID 743015); note: nearly all actives have a fitted effect of over 60% in size
Settings: DT40 Rad54/Ku70 mutant viability, CellTiter-Glo, 40 h; series mostly up to 66.8 µM
Source text: National Center for Advancing Translational Sciences [NCATS] NIH Chemical Genomics Center [NCGC] U.S. Environmental Protection Agency [EPA] National Institutes of Environmental Health Sciences [NIEHS] National Toxicology Program [NTP] U.S. Food and Drug Administration [FDA] DNA repair pathways play a critical role in cellular homeostasis by repairing DNA damage induced by endogenous processes and xenobiotics. […]
Records with an inconclusive call do not appear. Calls of active or inactive are those of the source. Calls come from the whole dose curve; as a rule, active = well fitted cell-killing curve with a large enough effect in the repeat runs; inconclusive = weak or mixed curves; inactive = no such curve, though single readings can be large or run the other way.
Answer with one of the outcomes Yes = active, No = inactive

query: Record request — test call for O=C(Cn1ccnc1[N+](=O)[O-])NCCO
result: No

query: Recorded call for CCOC(=O)c1ccc(C#Cc2ccc3c(c2)C(C)(C)CCS3)nc1 ?
result: Yes

query: Could you check what this test reported for CC1=C(CC=O)C(C)(C)CCC1 ?
result: Yes

query: Short answer needed: outcome of this test for CCCCCCCCCI ?
result: No

query: What call does the record list for CC(C)(O)c1ccc(CNC(=O)c2cccnc2Oc2ccc3nonc3c2)cc1 ?
result: Yes

query: Which outcome was assigned to C[C@@]12CCC[C@H]1[C@@H]1CC[C@H]3C[C@@H](O)CC[C@]3(C)[C@H]1CC2 in this test?
result: No

query: Recorded test outcome, item CCOc1ccc(Cc2nccc3cc(OCC)c(OCC)cc23)cc1OCC
result: Yes

query: Please indicate how the test categorized Cc1ccc(C(C)(C)O)cc1 .
result: No

query: Which outcome did this test record for the compound CC(CO)CO ?
result: No

query: I'd appreciate the recorded outcome for c1cc(N(CC2CO2)CC2CO2)ccc1Cc1ccc(N(CC2CO2)CC2CO2)cc1 (centres undefined) from this test.
result: Yes

query: Recorded call for CC(=O)NC1(c2cccc(F)c2)CCN(CC[C@@]2(c3ccc(Cl)c(Cl)c3)CN(c3ccccc3)C(=O)CO2)CC1 ?
result: Yes

query: Write down the call the test reported for this compound. Item: CC1(C)O[C@@H]2C[C@H]3[C@@H]4C[C@H](F)C5=CC(=O)C=C[C@]5(C)[C@H]4[C@@H](O)C[C@]3(C)[C@]2(C(=O)CO)O1
result: No

query: Check the results log: what was the call for CC=C(Cl)Cl ?
result: No

query: Record request — test call for NC1[C@H]2CN(c3nc4c(cc3F)c(=O)c(C(=O)O)cn4-c3ccc(F)cc3F)C[C@@H]12 (some centres undefined)
result: Yes

###

Target: Peroxisome proliferator-activated receptor delta (Homo sapiens) (UniProt Q03181)
Sequence (Q03181 whole entry, looked up): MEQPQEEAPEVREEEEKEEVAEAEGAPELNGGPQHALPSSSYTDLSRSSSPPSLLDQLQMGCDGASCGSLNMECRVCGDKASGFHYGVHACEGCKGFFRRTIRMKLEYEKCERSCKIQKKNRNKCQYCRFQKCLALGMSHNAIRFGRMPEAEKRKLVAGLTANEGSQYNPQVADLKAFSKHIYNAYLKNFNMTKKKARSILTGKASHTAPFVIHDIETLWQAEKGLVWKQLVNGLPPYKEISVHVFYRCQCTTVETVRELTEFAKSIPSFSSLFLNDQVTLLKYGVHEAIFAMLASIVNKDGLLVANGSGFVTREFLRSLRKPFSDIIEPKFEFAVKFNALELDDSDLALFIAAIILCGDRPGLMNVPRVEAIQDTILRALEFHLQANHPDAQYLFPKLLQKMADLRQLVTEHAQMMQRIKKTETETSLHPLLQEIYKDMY
Assay: qHTS assay to identify small molecule agonists of the peroxisome proliferator-activated receptor delta (PPARd) signaling pathway (AID 743212);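 note: HEK293H cells with PPARd UAS beta-lactamase reporter GeneBLAzer system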
Conditions: HEK293H PPARd-UAS-bla, beta-lactamase FRET ratio, 17 h; series mostly up to 62.6 µM
From the text: U.S. Tox21 Program National Center for Advancing Translational Sciences [NCATS] NIH Chemical Genomics Center [NCGC] U.S. Environmental Protection Agency [EPA] National Institutes of Environmental Health Sciences [NIEHS] National Toxicology Program [NTP] U.S. Food and Drug Administration [FDA] […]
Records with an inconclusive call do not appear. Calls of active or inactive are those of the source. Calls follow the shape of the full dose curve.
Hello, when you answer, please use one of the following outcomes: active, inactive

query: Per the assay record, what outcome was assigned to COc1ccccc1N1CCN(CC(O)COc2cccc3ccccc23)CC1 (stereo not drawn) ?
result: inactive

query: Which result was noted for this compound in the test: OCCN1CCN(CCCN2c3ccccc3Sc3ccc(Cl)cc32)CC1
result: inactive

query: // param item: Cc1ccc(CO)cc1 ; yields the recorded call
result: inactive

query: Per the assay record, what outcome was assigned to CC/C=C1/OC(=O)c2ccccc21 ?
result: inactive

query: Please share the test call associated with CC(CCC(=O)O)C(=O)O (stereo not drawn) .
result: inactive

query: Hi, sorry to bother you, what did the test record for CCOC(=O)c1ccc(O)c(O)c1 ?
result: inactive

query: Test call, this compound: CCC(C)(C)OC
result: inactive

query: Hi team, can someone confirm the assay call for Cc1c(C)c2c(c(C)c1OC(=O)CCC(=O)OCCO)CC[C@@](C)(CCC[C@H](C)CCC[C@H](C)CCCC(C)C)O2 ?
result: inactive

query: Could you check what this test reported for O=C1CCCCCCCCCCOCCCCO1 ?
result: inactive

query: How was Nc1ccc(N=Nc2ccccc2)c(N)c1 classified in this test?
result: inactive

query: Any idea what this test logged for O=Cc1c2ccccc2c(Cl)c2ccccc12 ?
result: active

query: Kindly provide the recorded test outcome for the following compound: C=C1CCC2CC1C2(C)C (stereo not drawn)
result: inactive

query: Given Cc1ccccc1N=C(N)Nc1ccccc1C , state the outcome it received in this test.
result: inactive

query: Hello, I am checking results. What call was entered for CCCCCCCC/C=C\CCCCCCCCCCCC(=O)O ?
result: inactive

query: Lab log entry: O=[N+]([O-])c1ccc(Nc2ccc(Nc3ccccc3)c(S(=O)(=O)O)c2)c([N+](=O)[O-])c1 — outcome as called in the assay?
result: inactive

query: What was the test verdict on OC[C@H]1O[C@@H](n2cnc3c(=S)nc[nH]c32)[C@H](O)[C@@H]1O ?
result: inactive

query: Returns: the outcome recorded for O=C1c2ccccc2C(=O)c2c(O)c(O)cc(O)c21 in this assay.
result: inactive

query: What is the recorded call for this compound in the test? O=C(O)c1ccc(OCCCOc2ccc(C(=O)O)cc2)cc1
result: inactive

query: What did the test return for C/C=C(/C(=C/C)c1ccc(O)cc1)c1ccc(O)cc1 ?
result: inactive

query: // return assay outcome for CC(=O)Nc1ccc(C)cc1C
result: inactive

query: Test call, this compound: CC(C)(O)c1ccc(CNC(=O)c2cccnc2Oc2ccc3nonc3c2)cc1
result: inactive

query: Short answer needed: outcome of this test for Oc1c(I)cc(I)c2cccnc12 ?
result: inactive

query: Field: outcome | Entry: CC1=C(Br)C(=O)C(Br)=C/C1=C(/c1ccccc1S(=O)(=O)O)c1cc(Br)c(O)c(Br)c1C
result: inactive

query: Hello, I am checking results. What call was entered for COC(=O)CCS ?
result: inactive

query: Please state the recorded outcome for this compound: Cc1cscn1
result: inactive

query: Answer briefly: the call reported for C=C(C)C(=O)OCCOCCOC(=O)C(=C)C in this assay.
result: inactive

query: Could you kindly confirm the outcome this assay logged for O=C1c2ccccc2C(=O)C1c1nc2ccccc2c(Br)c1O ?
result: inactive

query: Please state the recorded outcome for this compound: CCCCN(CCCC)C(C(N)=O)c1ccc(OC)cc1 (stereo not drawn)
result: inactive
